# cytotoxicity at 10 µM values compiled below
Test Summary: Toxicity liver stage against HepG2, at 10uM
Type: cell-based
Design: test concentration 10 uM, cell line HepG2-A16-CD81EGFP
Test Settings: human, HepG2-A16-CD81EGFP cells; read-out: INHIBITION
Write the value in % as a bare number.

Example entries begin here.
>  <Compound>
Cc1cnn(CC2CCCN2CC(=O)Nc2cc(C)nn2C)c1 (centres undefined)

>  <Test Value>
-20.1

$$$$
>  <Compound>
Cc1ccccc1C(=O)N1CCOCC1CN(C)C (centres undefined)

>  <Test Value>
-2.1

$$$$
>  <Compound>
O=C(NCCC1CCCO1)c1ccccc1N1CCOCC1 (centres undefined)

>  <Test Value>
-10.8

$$$$
>  <Compound>
Cc1cccc(CN2CCC3(CCN(c4cccnc4)C3=O)C2)n1 (centres undefined)

>  <Test Value>
-1.63

$$$$
>  <Compound>
N#Cc1c(N)nc2c(c1C1CCOC1)CCc1cc(O)ccc1-2 (centres undefined)

>  <Test Value>
23.4

$$$$

Q. cytotoxicity at 10 µM for CC1c2ncc(COCC3CCCC3)n2CCN1S(=O)(=O)N(C)C (centres undefined) ?
A. 14.6

Q. Item: N#CCSCC(=O)NCC1CCCCC1
A. 8.32

Q. And the next one, Cc1sc2nc(SC(C)c3nc(C(C)(C)C)no3)nc(N)c2c1C (centres undefined) ?
A. -1.13

Q. CCS(=O)(=O)N1CCCC2(CCCN2C(=O)c2cscn2)C1 (centres undefined) , same question.
A. 8.25

Q. Field entry: CCOCCN1CCN(CC(=O)N2CCCC2)CC1CC (centres undefined)
A. -2.47

Q. Same thing, different compound: CCc1noc(-c2cccc(OCC(=O)NC(C)C)c2)n1
A. -6.53

###

Items are presented alongside their recorded cytotoxicity at 10 µM.
Test Summary: Toxicity liver stage against HepG2, at 10uM
Assay type: cell-based
Set-up: test concentration 10 uM, cell line HepG2-A16-CD81EGFP
Test Settings: human, HepG2-A16-CD81EGFP cells; read-out: INHIBITION
Quick reminder: number only, in %, skip the unit.

Here's what some known entries look like.
>  <Compound>
CC(=O)c1ccc(NC(=O)N[C@H](C(=O)O)C(C)C)cc1

>  <Outcome Measure>
cytotoxicity at 10 µM

>  <Test Value>
-14.8

$$$$
>  <Compound>
CC(=O)NC(C)(C)c1noc(C2(C#N)CCCCC2)n1

>  <Outcome Measure>
cytotoxicity at 10 µM

>  <Test Value>
7.57

$$$$
>  <Compound>
CCS(=O)(=O)N1CCc2ccc(NC(=O)Nc3cccc(SC)c3)cc21

>  <Outcome Measure>
cytotoxicity at 10 µM

>  <Test Value>
37.7

$$$$
>  <Compound>
O=C(c1ccc(-c2nc[nH]n2)cc1)N1CC[C@H](CO)[C@@H](O)C1

>  <Outcome Measure>
cytotoxicity at 10 µM

>  <Test Value>
0.466

$$$$

Now look at this entry.
Q. Need cytotoxicity at 10 µM, item CCc1ccccc1CN1CC[C@@]2(O)CCN(S(=O)(=O)N(C)C)C[C@H]2C1
A. -2.19

###

# key: entry, value: cytotoxicity at 10 µM
Test Summary: Toxicity liver stage against HepG2, at 10uM
Assay type: cell-based
Set-up: test concentration 10 uM, cell line HepG2-A16-CD81EGFP
Test Settings: human, HepG2-A16-CD81EGFP cells; read-out: INHIBITION
Please reply with the bare figure in % and do not write the unit itself.

>  <Compound>
NC(=O)c1cccc2nc([C@H]3CCN(Cc4ccccn4)C3)[nH]c12

>  <cytotoxicity at 10 µM (%)>
4.32

$$$$
>  <Compound>
CCCc1ccc(CN2CCC3(CCC(=O)N(CCCOC)C3)CC2)o1

>  <cytotoxicity at 10 µM (%)>
-1.53

$$$$
>  <Compound>
Cc1nc(CN2CCCC(NCc3ccc(C(N)=O)cc3)C2)no1 (stereo unspecified)

>  <cytotoxicity at 10 µM (%)>
-9.47

$$$$
>  <Compound>
CCN(C(=O)CN1CCn2c(C)nnc2C1)C1=CCCCC1

>  <cytotoxicity at 10 µM (%)>
13.4

$$$$
>  <Compound>
Cc1cccc(CN2Cc3[nH]nc(COCC4CC4)c3C2)n1

>  <cytotoxicity at 10 µM (%)>
3.79

$$$$
>  <Compound>
CN(Cc1nncn1C)C(=O)c1cc(COc2ccccc2F)[nH]n1

>  <cytotoxicity at 10 µM (%)>
2.14

$$$$

Q. Look up cytotoxicity at 10 µM: Cc1ccnc(NC(=O)c2cccc(OCc3nnnn3C)c2)c1
A. -0.319

Q. Another compound to look at: CN(CC(=O)Nc1ccccc1)C(=O)CN(C)c1ccc(Cl)cn1
A. -1.83

Q. Now this one: COc1cc(NC(=O)NCc2cc(C)oc2C)cc(OC)c1
A. 5.24

Q. // query: Cn1cc(C[C@H]2[C@@H](O)CCN2C(=O)C2CCC2)cn1
A. -7.44

Q. Same again, this time with CCS(=O)(=O)NC(CCSC)C(=O)Nc1cc(F)ccc1C (stereo unspecified)
A. 6.29
